# study-system: Polyunsaturated fatty acid 5-lipoxygenase (Homo sapiens) (UniProt P09917)
# Sequence (P09917 whole entry): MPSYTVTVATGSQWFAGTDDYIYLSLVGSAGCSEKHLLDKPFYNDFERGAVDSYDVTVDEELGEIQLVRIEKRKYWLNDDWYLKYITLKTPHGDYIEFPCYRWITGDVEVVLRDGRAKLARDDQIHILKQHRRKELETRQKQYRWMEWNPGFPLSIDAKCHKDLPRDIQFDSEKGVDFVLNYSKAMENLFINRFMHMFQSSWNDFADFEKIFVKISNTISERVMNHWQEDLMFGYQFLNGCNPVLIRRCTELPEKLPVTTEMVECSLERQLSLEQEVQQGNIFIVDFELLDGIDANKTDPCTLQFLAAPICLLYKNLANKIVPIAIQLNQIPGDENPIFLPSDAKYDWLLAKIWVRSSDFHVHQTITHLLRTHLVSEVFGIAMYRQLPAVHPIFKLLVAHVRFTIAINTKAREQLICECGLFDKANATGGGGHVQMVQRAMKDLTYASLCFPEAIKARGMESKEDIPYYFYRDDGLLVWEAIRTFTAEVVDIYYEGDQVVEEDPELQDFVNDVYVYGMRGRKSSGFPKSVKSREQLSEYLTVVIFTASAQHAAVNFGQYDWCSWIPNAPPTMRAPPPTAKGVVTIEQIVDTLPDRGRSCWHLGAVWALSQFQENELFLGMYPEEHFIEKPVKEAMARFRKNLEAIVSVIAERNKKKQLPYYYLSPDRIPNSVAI
# test-description: Inhibition of 5-lipoxygenase in human intact polymorphonuclear leukocytes assessed as suppression of A23187-induced product formation at 10 uM
Activity calls are given as the source filed them. No cut-off for these calls is given here.
property-name: Activity

molecule: CC(Sc1nc(Cl)cc(Nc2ccc3ncccc3c2)n1)C(=O)O (configuration not stated)
property-name: Activity
value-reported: inactive

molecule: CCOC(=O)CSc1nc(Cl)cc(Oc2ccc3ncccc3c2)n1
property-name: Activity
value-reported: 77.6%

molecule: O=C(O)CSc1nc(Cl)cc(Nc2ccc3ncccc3c2)n1
property-name: Activity
value-reported: inactive

molecule: CCOC(=O)CSc1nc(Cl)cc(OCc2ccc3ncccc3c2)n1
property-name: Activity
value-reported: 3.9%

molecule: CCCCCCC(Sc1nc(Cl)cc(Nc2cccc(C)c2C)n1)C(=O)OCC (configuration not stated)
property-name: Activity
value-reported: 30.5%

molecule: CCOC(=O)C(C)Sc1nc(Cl)cc(Nc2cccc(C)c2C)n1 (configuration not stated)
property-name: Activity
value-reported: 22.8%

molecule: O=C(O)CSc1nc(Cl)cc(Nc2cccc3c2CCC3)n1
property-name: Activity
value-reported: 14.5%

molecule: CCOC(=O)CSc1nc(Cl)cc(Nc2cccc3c2CCC3)n1
property-name: Activity
value-reported: 8.9%

molecule: CCCCCCC(Sc1nc(Cl)cc(Nc2cccc(C)c2C)n1)C(=O)O (configuration not stated)
property-name: Activity
value-reported: 28.9%

molecule: CCCCCCC(Sc1nc(Cl)cc(NCc2ccc3ncccc3c2)n1)C(=O)O (configuration not stated)
property-name: Activity
value-reported: 26.7%

molecule: CCOC(=O)C(C)Sc1nc(Cl)cc(Nc2ccc3ncccc3c2)n1 (configuration not stated)
property-name: Activity
value-reported: 12%

molecule: CCOC(=O)CSc1nc(Cl)cc(Nc2ccc3ncccc3c2)n1
property-name: Activity
value-reported: 12.3%

molecule: Cc1cccc(Nc2cc(Cl)nc(SC(C(=O)O)c3ccccc3)n2)c1C (configuration not stated)
property-name: Activity
value-reported: inactive

molecule: O=C(O)CSc1nc(Cl)cc(Oc2ccc3ncccc3c2)n1
property-name: Activity
value-reported: inactive

molecule: CCCCCCC(Sc1nc(Cl)cc(Nc2ccc3ncccc3c2)n1)C(=O)O (configuration not stated)
property-name: Activity
value-reported: 20.1%

molecule: CCOC(=O)C(Sc1nc(Cl)cc(Nc2ccc3ncccc3c2)n1)c1ccccc1 (configuration not stated)
property-name: Activity
value-reported: 3.5%

molecule: Cc1cccc(Nc2cc(Cl)nc(SCC(=O)O)n2)c1C
property-name: Activity
value-reported: inactive

====

# study-system: Polyunsaturated fatty acid 5-lipoxygenase (Homo sapiens) (UniProt P09917)
# test-description: Inhibition of 5-lipoxygenase in human intact polymorphonuclear leukocytes assessed as suppression of A23187-induced product formation at 1 uM
Activity calls are given as the source filed them. The rule behind the calls is not given here.

compound: O=C(O)C(Sc1nc(Cl)cc(Nc2ccc3ncccc3c2)n1)c1ccccc1 (stereo not drawn)
study-system: Polyunsaturated fatty acid 5-lipoxygenase (Homo sapiens) (UniProt P09917)
Activity: inactive
--
compound: O=C(O)CSc1nc(Cl)cc(Nc2ccc3ncccc3c2)n1
study-system: Polyunsaturated fatty acid 5-lipoxygenase (Homo sapiens) (UniProt P09917)
Activity: inactive
--
compound: CCOC(=O)CSc1nc(Cl)cc(Nc2ccc3ncccc3c2)n1
study-system: Polyunsaturated fatty acid 5-lipoxygenase (Homo sapiens) (UniProt P09917)
Activity: 86.3%
